The origin of these recorded values is the supplement of paper PMC12764529.

assay: folding stability dG unfold (combined trypsin and chymotrypsin); higher = more stable
quantity.measured: folding stability dG unfold (kcal/mol)
Give just the numeric value; kcal/mol need not be written.

Solved entries:
SAGGSAGGSAGGTPFKAKDPKTDKVYLGEKDPVSGKVTITDPNTGNPIIVPGGEIEFIVSAGGSAGGSAGGS [r10_28_JUSTAS] ... -0.282
SAPPNHRMVMYEIPIPPGMEIGDEIKLKIKVPGKEYPIKIDRIPNLPPGMRVRIMFNLDNGQFMIQILPSAG [r14_554_TrROS] ... 2.77
SKWTIDIDITYYPEYGVITVTIRYPNSWEQARFDVRSFIHEAGMPIKLEDIEIEQVEGWYEITYTIRIPPSA [r9_164_TrROS] ... 3.78
SAGGSAGGEMTAEELAEKLAEELKEKGYEVEVEVVEVEVEEDTVRIKIKLKDGRELEIELKIEPSAGGSAGG [r6_617_TrROS_Hall] ... 2.74
SAGGMELVGEYEVELPDVPIRFPVYRVPEAGLVVVEAERYDPSTGEWTPLGVVPLPEGSAEEALKALSAGGS [r8_423_TrMRF] ... 0.864
SAGGKITIEIEEEDGYLVIRIREEKEVYDEETGELKKEEKEITIVLPLEEAKKLAEELNLEIEIVEPSAGGS [r8_337_TrROS_Hall] ... 2.42

Prompt line: Given the entry SAKLTPEEIEELAEKLAKELAEKEGIEKVEVKVEKKEDGKVTVEIRFEKNKKTIRIEFENGEVKIVEIESAG [r14_925_TrROS_Hall] , report its measured folding stability dG unfold.
Response line: 2.97

Prompt line: Okay, and SAMKITDVTVERNPDNGWYEVMVTFEFDNGPVTVKIWMPRDGNMPIDVYDMGNGEPKGEIWIPADQIKFSAG [r14_608_TrROS] ?
Response line: 1.15

Prompt line: Okay, and SAGGSAGGSAGGNGKKEITIFIKVPPGMPPNEIKDELKDLGLTNIEIERHNNWVMITFRSAGGSAGGSAGGS [r10_868_TrROS] ?
Response line: 1.58

Prompt line: Okay, and SAGKKKKKKLKITIEITYNKETNTVTIKITVDGKEITVEVKAKSKEEALLNALKELEKKLNIKIKEVKLSAG [r5_251_TrROS_Hall] ?
Response line: 2.27

---

assay: folding stability dG unfold (combined trypsin and chymotrypsin); higher = more stable
Response field class: enum, chosen by comparing folding stability dG unfold against low (below 0.8 kcal/mol), mid (0.8 kcal/mol to below 2 kcal/mol), high (2 kcal/mol or more)

SAMKKPPKTLTLVIVVKVPEEEMTEEQLEELARELAEALAPPGEKVEVKVEVERLPDGTVVVKIEIKLESAG [r14_389_TrROS_Hall] ... high
SAGGMTLITIEHPDGEVIEFELPGATEEEAEAIAEEIAKRHDPGKVKVTFEKVPEKGVDPTKPVAVKSAGGS [r8_167_JUSTAS] ... mid
SAGGSAGIKAVLNLGDKPVLVLIEPLPDGSFPVIAIFADDGSKVEKVIPASDIGELLSLDPDKLTFSAGGSA [r15_629_TrMRF] ... low
SAGITILFNSAEDAENFAEELAEDYPNMNVTIKIHDPEHGEPVEIPVKIPPPPPKPKRDPDNGNKKYEGSAG [r5_870_TrROS] ... low
SAGGSAGGSAIKKTPNGKYLLKVTFTETYKDKKTGKTYKKTYTKTYVFDKKTNKWKSAEELSAGGSAGGSAG [r3_394_TrROS_Hall] ... high
SAGGSAGGSAKKIEIDPERDPNGMHLVEVTRRDPGNGKKKDIPFNVNPGKMTPEEIKDLAKSAGGSAGGSAG [r3_127_TrROS] ... low

Prompt line: Given SAGGPTVVLRVRDADGNLVTVTFDEETKRITVTVVRDGKTRTLTVDMTVDEAIARLRDLFPVEVELVPSAGG [r13_141_TrROS_Hall] , name the class its folding stability dG unfold places it in.
Response line: high

Prompt line: Okay, and SAGGSAKRYFIMIDIRYPGDGKEIYPLVIPIPPGEPISIEDILDEIGFPPENADNVDIEIHTFRAKSAGGSA [r15_665_TrROS] ?
Response line: mid

Prompt line: Okay, and SAGGSAGGSALEIPFEVVDEKDFLLEGDYIVRVAELKNGLRALAIYDPKTGKVLVIVSPGGSAGGSAGGSAG [r3_438_TrMRF] ?
Response line: high

Prompt line: Okay, and SAGGSAGGWREIKIYVPPGMPLEEIKDLIKEFFPGYKVEIDEIEREDNYVKATIRIQPLPPGDFSAGGSAGG [r6_623_TrROS] ?
Response line: high

Prompt line: Okay, and SAGGSAGGSAGGSVTSTSSVGSSPGSTTTLTYPEKPLYVTVYTELKDDPTVVTTETFPLLSAGGSAGGSAGG [r7_509_JUSTAS] ?
Response line: mid

Prompt line: Okay, and SAGGSAGGSVLVIDSPEQIKKAIKEFKDNGAKSIHIRGPGRYWVIQIDPKEPKVKVERVPLGQSAGGSAGGS [r12_368_TrROS] ?
Response line: low
